system: Saccharomyces cerevisiae; assay: protein stability index of tFT-peptide fusion (C-terminal peptide) (PSI (0-1 scale)); higher = more stable (slower turnover); settings: genetic background: das1 deletion; temperature: 37 C
Quick reference: protein stability index of the listed items.
Reply briefly: the number, and no unit.

Guide cases for protein stability index, answers given:
VLLLLGGIVCVM	0.412
FGGICFAVLLCR	0.393
PPCSLLPPPPAP	0.713
FTFLFPLRLLPL	0.478
HPPPTLVPPHPR	0.727
CMLGVVRVLVWF	0.193
LFFFVCYLATVK	0.416
LVLSVWFFNCTS	0.573
VLCMSIFIVFGI	0.352
LLLRSSRLRVLS	0.652

Prompt line: Which value of protein stability index has been reported for VCVFNLTLVGTH in the records?
Response line: 0.449

Prompt line: Item GEVLWAVLLVSC has what recorded protein stability index?
Response line: 0.343

---

Listed below: protein stability index values for each entry.
test system: Saccharomyces cerevisiae; test: protein stability index of tFT-peptide fusion (C-terminal peptide) (PSI (0-1 scale)); higher = more stable (slower turnover); conditions: genetic background: wild type; temperature: 30 C
Would you mind answering with just the numeric figure?

Below: 2 sequences and their reported protein stability index.
IYTRVWPQSWLP	0.696
RFGGVWRCRGFV	0.696

Now look at this one.
Prompt line: Need protein stability index of PPPPAPYRPPSC , thanks.
Response line: 0.682

---

system: Saccharomyces cerevisiae; assay: protein stability index of tFT-peptide fusion (C-terminal peptide) (PSI (0-1 scale)); higher = more stable (slower turnover); details: genetic background: wild type; temperature: 30 C
measured property: protein stability index

Prompt line: Find the recorded protein stability index belonging to VQWTEFYWVRKG and report it.
Response line: 0.575

Prompt line: Param item = RSPHLPTARSSQ ; retrieve measured protein stability index.
Response line: 0.723

---

system: Saccharomyces cerevisiae; test: protein stability index of tFT-peptide fusion (C-terminal peptide) (PSI (0-1 scale)); higher = more stable (slower turnover); conditions: genetic background: wild type; temperature: 30 C
Entries and their protein stability index values follow.
Answer with the value's number alone.

Please review the entries below; each comes with its answer.
GVALAGALAFLI [HOR7 C-terminal 12 aa]	0.662
NTHDLHLRPGTY [YBL005W-A C-terminal 12 aa]	0.708

Prompt line: Which protein stability index is reported for this sequence? MILKVSLECAVS [YDL009C C-terminal 12 aa]
Response line: 0.481

---

test system: Saccharomyces cerevisiae; assay: protein stability index of tFT-peptide fusion (C-terminal peptide) (PSI (0-1 scale)); higher = more stable (slower turnover); conditions: genetic background: wild type; temperature: 30 C
measured property: protein stability index
Form rule: numeric answer, no unit written next to it.

Sample answers from the record:
GRSHVGGCGGEG	0.693
PPCPGPLPPPPP	0.666
FVVGTFGHRRGR	0.694
CGRLSNAAEPTC	0.792
TEGGKIEGGGRK	0.682
VGSGGGKGLCRQ	0.674
QGKPSKWRSGSI	0.646
DESWCVPCPSSL	0.648

Prompt line: Request the reported protein stability index associated with PSTLPLRLPRMF
Response line: 0.644

Prompt line: I would be grateful if you could share the reported protein stability index for ISVSLWFRGRYY .
Response line: 0.599

Prompt line: Data request, read-out protein stability index, for RGGAGSWDWEAG
Response line: 0.707

---

Overview of recorded protein stability index for various sequences
test system: Saccharomyces cerevisiae; assay: protein stability index of tFT-peptide fusion (C-terminal peptide) (PSI (0-1 scale)); higher = more stable (slower turnover); conditions: genetic background: wild type; temperature: 37 C
Would you mind answering with just the numeric figure?

SGLVAFSVCCRG	0.486
IIAGVWFLEILG	0.497

Please turn your attention to the following entry.
Prompt line: What value of protein stability index has been recorded for this entry: FLWLCLLSLFFR
Response line: 0.498

---

system: Saccharomyces cerevisiae; experiment: protein stability index of tFT-peptide fusion (C-terminal peptide) (PSI (0-1 scale)); higher = more stable (slower turnover); settings: genetic background: das1 deletion; temperature: 30 C
measured property: protein stability index
Answer as a number with no unit attached.

Prompt line: Hi! What's the reported protein stability index for IEVGADSYAEEF [TUB3 C-terminal 12 aa] on Saccharomyces cerevisiae?
Response line: 0.689

---

system: Saccharomyces cerevisiae; assay: protein stability index of tFT-peptide fusion (C-terminal peptide) (PSI (0-1 scale)); higher = more stable (slower turnover); conditions: genetic background: doa10 deletion; temperature: 30 C
Listed next: entries and their corresponding protein stability index.

FFVWGVFLGVSW	0.297
LFGFYFVRCLVW	0.16
MLCVFVFIWYFV	0.218
FNFFFSSVFLLV	0.3
VLLYRIAPRLLH	0.181
TVWRRIRHACAH	0.193
SVFGVRARFGSV	0.707
LFTVCMIIQMVH	0.0793
GVVCCGFFFLVV	0.363
PPCSLLPPPPAP	0.715

Then there is this sequence:
Prompt line: Report protein stability index for VFFRCVCCLSVF please.
Response line: 0.253

---

test system: Saccharomyces cerevisiae; experiment: protein stability index of tFT-peptide fusion (C-terminal peptide) (PSI (0-1 scale)); higher = more stable (slower turnover); settings: genetic background: wild type; temperature: 30 C
Using protein stability index as the sorting value, the categories are bin 1: < 0.6; bin 2: ≥ 0.6 and < 0.7; bin 3: ≥ 0.7

Examples from the recorded data:
LPNLCRLISFGS	bin 2
IQLQSNGLYSKK	bin 2
HPNKPTYLPSPY	bin 3
RYKIEKKKLMNN	bin 1
LFCHHCASLVDL	bin 3
VPLRGPAPPRPR	bin 3
LLVLHVFPLASH	bin 1
CKRKGREEEEKE	bin 3
HHEDGRPTCQAN	bin 2
AGVVCGGGWWWA	bin 3

Now look at this entry.
Prompt line: Assign a bin to VPSPWLIRSLMS
Response line: bin 1

---

tested on: Saccharomyces cerevisiae; assay: protein stability index of tFT-peptide fusion (C-terminal peptide) (PSI (0-1 scale)); higher = more stable (slower turnover); conditions: genetic background: wild type; temperature: 30 C
Items are presented alongside their recorded protein stability index.
The answer should be written as a number, with no unit following it.

SEALRGVQFLSC	0.684
SECFARSSSPRA	0.713
PARPSPRPHLPD	0.692
WSGKRAKGISEK	0.682
GCCGGRLWEGGG	0.707
LFLFAPRPPPPP	0.717

Prompt line: May I ask what protein stability index has been recorded for LALFDPAQRHAR ?
Response line: 0.704

---

Items are presented alongside their recorded protein stability index.
test system: Saccharomyces cerevisiae; test: protein stability index of tFT-peptide fusion (C-terminal peptide) (PSI (0-1 scale)); higher = more stable (slower turnover); conditions: genetic background: wild type; temperature: 30 C
Would you mind answering with just the numeric figure?

Below, 3 sequences whose answers are already recorded.
GEGRRYVVVTEG	0.693
GGTWVLGWGLGV	0.714
SGRVGRGAADWR	0.681

Prompt line: Endpoint output: protein stability index of RIEKYKKKKETK . Value?
Response line: 0.712

Prompt line: For the sequence AGTCVSVGVHRY , what protein stability index is on record?
Response line: 0.599

Prompt line: State the recorded protein stability index for this entry: GGVSGQLLRSHG
Response line: 0.682

---

tested on: Saccharomyces cerevisiae; assay: protein stability index of tFT-peptide fusion (C-terminal peptide) (PSI (0-1 scale)); higher = more stable (slower turnover); conditions: genetic background: das1 deletion; temperature: 37 C
Listing of entries alongside the reported protein stability index.
Lab note: jot down the number only; don't add units.

The following sequences have reported results that may help.
ETCFSFVCSVQC	0.402
GCFVDRVYVVVV	0.546
LVRFYGPLPPFP	0.757
EFFILYFFLKVL	0.393
FLVVSSVGFPLL	0.729

Prompt line: Request - read-out protein stability index | tested on Saccharomyces cerevisiae | sequence GWCLLRVLVLVW
Response line: 0.107

Prompt line: # get_value(readout= protein stability index, system= Saccharomyces cerevisiae) for LLSILSSLPLSR
Response line: 0.707

Prompt line: Form field - read-out: protein stability index; system: Saccharomyces cerevisiae; submitted item: LWFFVVVVVRWV
Response line: 0.261

Prompt line: # get_value(readout= protein stability index, system= Saccharomyces cerevisiae) for FIPPRTYCLMIG
Response line: 0.693

Prompt line: What reported protein stability index corresponds to GFVCFIHLFLCF on Saccharomyces cerevisiae?
Response line: 0.425

Prompt line: Under Saccharomyces cerevisiae: protein stability index value of VSLCVVYGLVVG ?
Response line: 0.446

---

test system: Saccharomyces cerevisiae; assay: protein stability index of tFT-peptide fusion (C-terminal peptide) (PSI (0-1 scale)); higher = more stable (slower turnover); details: genetic background: wild type; temperature: 37 C
Classify as follows. Reported protein stability index greater than or equal to 0.4: class 1. Reported protein stability index below: class 0.

Worked cases, answers included:
CSLRGLFLVVSV	class 1
WYMYVRMASFLV	class 1
GGGGLRVVVWLV	class 0
VLSLYWLIISRL	class 1

Prompt line: Check if protein stability index >= 0.4 (inclusive). Item: LLSGLVFVFVLG
Response line: class 1

Prompt line: Assess whether reported protein stability index for WSVCLLLLGRFC sits at 0.4 or higher.
Response line: class 1

Just for reference, the supplement of paper PMC10724198 is where these values come from.
